Target: Yer184c (UniProt P39961)
Sequence: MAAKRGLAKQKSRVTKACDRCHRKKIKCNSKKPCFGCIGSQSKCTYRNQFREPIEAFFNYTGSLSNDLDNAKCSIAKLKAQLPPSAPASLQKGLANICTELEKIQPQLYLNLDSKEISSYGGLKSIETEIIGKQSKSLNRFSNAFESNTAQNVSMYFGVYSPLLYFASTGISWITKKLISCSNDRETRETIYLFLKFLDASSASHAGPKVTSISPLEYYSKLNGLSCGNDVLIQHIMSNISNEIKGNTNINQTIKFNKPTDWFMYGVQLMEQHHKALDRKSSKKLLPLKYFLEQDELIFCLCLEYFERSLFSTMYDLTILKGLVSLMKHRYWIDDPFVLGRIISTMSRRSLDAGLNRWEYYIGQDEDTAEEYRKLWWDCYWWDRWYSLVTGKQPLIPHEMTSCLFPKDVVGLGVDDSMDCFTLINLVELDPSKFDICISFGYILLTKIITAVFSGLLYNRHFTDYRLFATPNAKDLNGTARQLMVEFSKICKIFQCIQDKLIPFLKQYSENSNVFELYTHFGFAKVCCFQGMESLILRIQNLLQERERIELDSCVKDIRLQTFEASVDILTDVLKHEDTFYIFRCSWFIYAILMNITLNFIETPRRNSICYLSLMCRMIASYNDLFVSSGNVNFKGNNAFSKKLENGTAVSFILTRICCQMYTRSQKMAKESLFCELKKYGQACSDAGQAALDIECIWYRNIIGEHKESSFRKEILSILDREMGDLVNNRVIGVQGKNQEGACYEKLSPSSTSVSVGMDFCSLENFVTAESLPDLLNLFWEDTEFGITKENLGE
Test: PBM E-score (8-mer binding enrichment) (E-score (-0.5 to 0.5)); higher = stronger / more preferred TF binding
Settings: protein concentration: 100 nM; construct: GST-full length
Over roughly 33,000 sequences, “E-score (-0.5 to 0.5)” has its median near -0.016; the highest 2% begin near 0.3. The entries come from a sample that favours the highest values as a whole.
Let's look at some sequences and their measured PBM E-score.

[
  {
    "input sequence": "AATATTCG",
    "PBM E-score": 0.0897
  },
  {
    "input sequence": "ACCGCGGA",
    "PBM E-score": 0.314
  },
  {
    "input sequence": "AGCGCCGG",
    "PBM E-score": 0.351
  },
  {
    "input sequence": "GCCGCCGA",
    "PBM E-score": 0.264
  },
  {
    "input sequence": "AATATTAA",
    "PBM E-score": 0.311
  },
  {
    "input sequence": "AAACTGTC",
    "PBM E-score": -0.133
  },
  {
    "input sequence": "AATATTCC",
    "PBM E-score": 0.342
  },
  {
    "input sequence": "CTAGAACC",
    "PBM E-score": -0.00303
  },
  {
    "input sequence": "TATATTAA",
    "PBM E-score": 0.274
  },
  {
    "input sequence": "AGCGCCGA",
    "PBM E-score": 0.357
  }
]

Please give measured PBM E-score of the following entry: AGTATAAC
-0.0238
